# Target or system: UniProt:P35372
# Sequence (P35372 whole entry): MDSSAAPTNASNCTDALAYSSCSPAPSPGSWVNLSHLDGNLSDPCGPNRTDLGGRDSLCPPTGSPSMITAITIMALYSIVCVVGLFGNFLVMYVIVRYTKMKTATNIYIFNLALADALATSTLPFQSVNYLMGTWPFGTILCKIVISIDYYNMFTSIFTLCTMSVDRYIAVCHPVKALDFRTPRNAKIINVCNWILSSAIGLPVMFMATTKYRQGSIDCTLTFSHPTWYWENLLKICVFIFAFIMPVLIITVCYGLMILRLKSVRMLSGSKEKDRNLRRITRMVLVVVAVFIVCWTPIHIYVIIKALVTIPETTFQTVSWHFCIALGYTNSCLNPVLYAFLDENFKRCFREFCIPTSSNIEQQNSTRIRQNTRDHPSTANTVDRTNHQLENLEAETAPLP
# Experiment: Displacement of [3H]DPN from recombinant human mu opioid receptor expressed in CHOK1 cell membranes
Would you mind telling me the reported pKi of each entry?
The quantity pKi is defined as the negative base-10 logarithm of the molar concentration.

Task: I'm curious: which pKi was measured for NC(=O)c1cccc(C2C[C@H]3CC[C@H](C2)N3Cc2c(F)cccc2F)c1 (relative stereo; 26a) tested on UniProt:P35372?
Result: 7.50

Task: I'm curious: which pKi was measured for NC(=O)c1cccc(C2C[C@H]3CC[C@H](C2)N3CC(O)Cc2ccccc2)c1 (stereo in doubt; 31b) tested on UniProt:P35372?
Result: 7.50

Task: I'm curious: which pKi was measured for NC(=O)c1cccc(C2C[C@H]3CC[C@H](C2)N3CCCOc2ccccc2)c1 (stereo not given in full) tested on UniProt:P35372?
Result: 8.20

Task: I'm curious: which pKi was measured for C[N+]1(CC2CC2)CC[C@]23c4c5ccc(O)c4O[C@H]2C(=O)CC[C@@]3(O)[C@H]1C5 (stereo not given in full) [METHYLNALTREXONE] tested on UniProt:P35372?
Result: 8.10

Task: I'm curious: which pKi was measured for Oc1cccc(C2C[C@H]3CC[C@H](C2)N3Cc2c(F)cccc2F)c1 (relative stereo; 18a) tested on UniProt:P35372?
Result: 7.80

Task: I'm curious: which pKi was measured for CC(C)(C)c1ccc(CN2[C@@H]3CC[C@@H]2CC(c2cccc(C(N)=O)c2)C3)cc1 (relative stereo; 28b) tested on UniProt:P35372?
Result: 8.00

Task: I'm curious: which pKi was measured for NC(=O)c1cccc(C2C[C@H]3CC[C@H](C2)N3CCCCN2C(=O)c3ccccc3C2=O)c1 (relative stereo; 29a) tested on UniProt:P35372?
Result: 8.80

Task: I'm curious: which pKi was measured for NC(=O)c1cccc(C2C[C@H]3CC[C@H](C2)N3CC(O)Cc2ccccc2)c1 (relative stereo) tested on UniProt:P35372?
Result: 9.60

Task: I'm curious: which pKi was measured for NC(=O)c1cccc(C2C[C@H]3CC[C@H](C2)N3CCCOc2ccccc2)c1 (relative stereo) tested on UniProt:P35372?
Result: 9.70

Task: I'm curious: which pKi was measured for CC(C)(C)c1ccc(CN2[C@@H]3CC[C@@H]2CC(c2cccc(C(N)=O)c2)C3)cc1 (relative stereo; 28a) tested on UniProt:P35372?
Result: 10.00

Task: I'm curious: which pKi was measured for NC(=O)c1cccc(C2C[C@H]3CC[C@H](C2)N3CCCc2ccccc2)c1 (relative stereo; 24a) tested on UniProt:P35372?
Result: 9.90

Task: I'm curious: which pKi was measured for Oc1cccc(C2C[C@H]3CC[C@H](C2)N3CCCOc2ccccc2)c1 (relative stereo; 19a) tested on UniProt:P35372?
Result: 10.00

Task: I'm curious: which pKi was measured for O=C1c2ccccc2C(=O)N1CCCCN1[C@@H]2CC[C@@H]1CC(c1cccc(O)c1)C2 (relative stereo; 21a) tested on UniProt:P35372?
Result: 9.10

Task: I'm curious: which pKi was measured for NC(=O)c1cccc(C2C[C@H]3CC[C@H](C2)N3CCCc2ccccc2)c1 (relative stereo; 24b) tested on UniProt:P35372?
Result: 7.80

Task: I'm curious: which pKi was measured for NC(=O)c1cccc(C2C[C@H]3CC[C@H](C2)N3CC(=O)C2CCCCC2)c1 (relative stereo; 30a) tested on UniProt:P35372?
Result: 9.80
